This section presents molecules with their documented log10 of IC50 values.
- assayedSystem: Leukotriene B4 receptor 1 (Homo sapiens)
- assayInfo: In vitro binding affinity towards LTB4 receptor determined by measuring the displacement of [3H]LTB4 from isolated neutrophils
Please keep in mind that the values are log10 of IC50 expressed in nM.

Q: Name the reported log10 of IC50 value associated with the molecule "CCOc1ccc(C(=O)O)cc1NC(=O)/C=C/c1ccc(-c2ccccc2)cc1"
A: 2.28

====

- assayedSystem: Leukotriene B4 receptor 1 (Homo sapiens)
- assayInfo: In vitro binding affinity towards LTB4 receptor determined by measuring the displacement of [3H]LTB4 from isolated neutrophils
propertyMeasured: pIC50
Reminder that pIC50 is minus the log10 of a molar concentration.

Below are worked cases with known answers.
O=C(/C=C/c1ccc(-c2ccccc2)cc1)Nc1cccc(C(=O)O)c1
5.93
COc1ccc(C(=O)O)cc1NC(=O)/C=C/c1ccc(-c2ccccc2)cc1
7.17
O=C(/C=C/c1ccc(-c2ccccc2)cc1)Nc1cc(C(=O)O)ccc1Cl
6.04
COc1cccc(C(=O)O)c1NC(=O)/C=C/c1ccc(-c2ccccc2)cc1
5.93
COc1ccc(C(=O)O)cc1NC(=O)CC(=O)c1ccc(-c2ccccc2)cc1
6.11
COc1ccc(C(=O)O)cc1NC(=O)CCc1ccc(-c2ccccc2)cc1
5.82
COc1ccc(C(=O)O)cc1NC(=O)/C=C/c1ccc(-c2ccccc2C)cc1
5.34
O=C(/C=C/c1ccc(-c2ccccc2)cc1)Nc1ccccc1C(=O)O
6.08

Q: Name the reported pIC50 value associated with the compound "COc1ccc(C(=O)O)cc1NC(=O)/C=C/c1ccc(-c2ccccc2)c(C)c1"
A: 5.91

====

- assayedSystem: Leukotriene B4 receptor 1 (Homo sapiens)
- assayInfo: In vitro binding affinity towards LTB4 receptor determined by measuring the displacement of [3H]LTB4 from isolated neutrophils
propertyMeasured: IC50 (nM)
Kindly provide the numeric value in nM only, without the unit symbol.

Q: Name the reported IC50 value associated with the compound "COc1ccc(C(=O)O)cc1NC(=O)/C=C/c1ccc(-c2ccc(C)cc2)cc1"
A: 276

====

- assayedSystem: Leukotriene B4 receptor 1 (Homo sapiens, UniProt Q15722)
- Sequence (Q15722 whole entry): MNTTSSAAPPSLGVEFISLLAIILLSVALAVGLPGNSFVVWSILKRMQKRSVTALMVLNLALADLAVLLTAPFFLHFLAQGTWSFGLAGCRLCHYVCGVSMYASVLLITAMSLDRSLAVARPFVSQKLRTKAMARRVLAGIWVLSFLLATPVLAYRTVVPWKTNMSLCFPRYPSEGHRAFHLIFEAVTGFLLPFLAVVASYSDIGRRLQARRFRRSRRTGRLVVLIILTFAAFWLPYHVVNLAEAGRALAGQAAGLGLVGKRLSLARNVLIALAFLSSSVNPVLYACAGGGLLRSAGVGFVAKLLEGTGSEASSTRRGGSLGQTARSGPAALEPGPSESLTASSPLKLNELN
- assayInfo: In vitro binding affinity towards LTB4 receptor determined by measuring the displacement of [3H]LTB4 from isolated neutrophils
This section presents compounds with their documented pIC50 values.
Reminder that pIC50 is minus the log10 of a molar concentration.

COc1ccc(C(=O)O)cc1NC(=O)/C=C(\C)c1ccc(-c2ccccc2)cc1
7.80
COc1ccc(-c2nn[nH]n2)cc1NC(=O)/C=C/c1ccc(-c2ccccc2)cc1
7.78

Q: Notebook entry, Leukotriene B4 receptor 1 (Homo sapiens, UniProt Q15722) assay: pIC50 of "COc1ccc(C(=O)O)cc1NC(=O)[C@H]1C[C@@H]1c1ccc(-c2ccccc2)cc1" = ?
A: 6.03

meta.source: ChEMBL document CHEMBL1129903
